Conditions: siRNA; note: test system not given here
HELM strings list units from the 5' end as sugar, base in round brackets, then linkage (d deoxyribose, r ribose, m 2'-O-methyl, p phosphodiester). Strings are as the collection lists them, not checked against the first reports. ss, as = sense and antisense strand; [lna] = locked nucleic acid (LNA); [hna] = hexitol nucleic acid; [fl2r] = 2'-fluoro
Doc: threshold 60% (exclusive). Items with target mRNA knockdown beneath it return Satisfied; others return Not satisfied.

substance	qualitative.label
RNA1{r(A)p.m(U)p.r(A)p.r(C)p.r(U)p.r(U)p.r(G)p.r(G)p.r(C)p.r(G)p.r(G)p.r(G)p.r(C)p.r(U)p.r(C)p.r(U)p.r(U)p.r(U)p.r(C)p.r(T)p.r(T)}|RNA2{r(G)p.r(A)p.r(A)p.r(A)p.r(G)p.r(A)p.r(G)p.r(C)p.r(C)p.r(C)p.r(G)p.r(C)p.r(C)p.r(A)p.r(A)p.r(G)p.r(U)p.r(A)p.r(U)p.r(T)p.r(T)}$$$RNA1{StrandType:ss}|RNA2{StrandType:as}$	Satisfied
RNA1{r(C)p.r(U)p.r(U)p.r(A)p.r(C)p.r(G)p.r(C)p.r(U)p.r(G)p.r(A)p.r(G)p.r(U)p.r(A)p.r(C)p.r(U)p.r(U)p.r(C)p.r(G)p.r(A)p.r(T)p.r(T)}|RNA2{r(U)p.r(C)p.r(G)p.r(A)p.r(A)p.r(G)p.r(U)p.r(A)p.r(C)p.r(U)p.r(C)p.r(A)p.r(G)p.r(C)p.r(G)p.r(U)p.r(A)p.[lna](A)p.r(G)p.r(T)p.r(T)}$$$RNA1{StrandType:ss}|RNA2{StrandType:as}$	Not satisfied
RNA1{r(A)p.r(G)p.r(A)p.r(G)p.r(A)p.r(A)p.r(G)p.r(G)p.r(G)p.[fl2r](C)p.r(G)p.r(U)p.r(C)p.r(U)p.r(C)p.[fl2r](U)p.r(A)p.[fl2r](C)p.r(A)p.r(T)p.r(T)}|RNA2{[fl2r](U)p.r(G)p.[fl2r](U)p.r(A)p.r(G)p.r(A)p.r(G)p.r(A)p.r(C)p.r(G)p.r(C)p.r(C)p.r(C)p.r(U)p.r(U)p.r(C)p.r(U)p.r(C)p.r(U)p.r(T)p.r(T)}$$$RNA1{StrandType:ss}|RNA2{StrandType:as}$	Not satisfied
RNA1{r(A)p.r(U)p.r(C)p.r(G)p.r(C)p.[fl2r](U)p.r(G)p.r(C)p.[fl2r](U)p.r(C)p.r(C)p.[fl2r](U)p.r(C)p.r(C)p.r(U)p.r(C)p.r(C)p.r(U)p.r(C)p.r(T)p.r(T)}|RNA2{r(G)p.r(A)p.r(G)p.r(G)p.r(A)p.r(G)p.r(G)p.r(A)p.r(G)p.r(G)p.r(A)p.r(G)p.[fl2r](C)p.r(A)p.r(G)p.r(C)p.r(G)p.r(A)p.r(U)p.r(T)p.r(T)}$$$RNA1{StrandType:ss}|RNA2{StrandType:as}$	Not satisfied
RNA1{r(C)p.r(U)p.r(C)p.m(U)p.r(G)p.r(G)p.r(C)p.r(C)p.r(U)p.r(U)p.r(U)p.r(C)p.r(U)p.r(C)p.r(U)p.r(C)p.m(U)p.r(A)p.r(G)p.r(T)p.r(T)}|RNA2{r(C)p.r(U)p.r(A)p.r(G)p.r(A)p.r(G)p.r(A)p.r(G)p.r(A)p.r(A)p.r(A)p.r(G)p.r(G)p.r(C)p.m(C)p.r(A)p.r(G)p.r(A)p.r(G)p.r(T)p.r(T)}$$$RNA1{StrandType:ss}|RNA2{StrandType:as}$	Satisfied
RNA1{r(A)p.m(C)p.r(A)p.r(G)p.r(A)p.r(A)p.r(A)p.r(G)p.r(A)p.r(G)p.r(U)p.r(U)p.r(C)p.r(G)p.r(A)p.r(G)p.r(G)p.r(A)p.r(G)p.r(T)p.r(T)}|RNA2{r(C)p.r(U)p.r(C)p.r(C)p.r(U)p.r(C)p.r(G)p.r(A)p.r(A)p.r(C)p.r(U)p.r(C)p.r(U)p.r(U)p.r(U)p.r(C)p.m(U)p.r(G)p.r(U)p.r(T)p.r(T)}$$$RNA1{StrandType:ss}|RNA2{StrandType:as}$	Not satisfied
RNA1{r(C)p.r(U)p.r(U)p.r(A)p.r(C)p.r(G)p.r(C)p.r(U)p.r(G)p.r(A)p.r(G)p.r(U)p.r(A)p.r(C)p.r(U)p.r(U)p.r(C)p.r(G)p.r(A)p.r(T)p.r(T)}|RNA2{r(T)p.r(C)p.r(G)p.r(A)p.r(A)p.r(G)p.r(U)p.r(A)p.r(C)p.r(U)p.r(C)p.r(A)p.r(G)p.r(C)p.r(G)p.[lna](T)p.r(A)p.r(A)p.r(G)p.[lna](T)p.[lna](T)}$$$RNA1{StrandType:ss}|RNA2{StrandType:as}$	Not satisfied
RNA1{[hna](G)p.[hna](A)p.[hna](C)p.r(G)p.r(U)p.r(A)p.r(A)p.r(A)p.r(C)p.r(G)p.r(G)p.r(C)p.r(C)p.r(A)p.r(C)p.r(A)p.r(A)p.[hna](G)p.[hna](U)p.[hna](U)p.d(T)}|RNA2{r(A)p.[hna](C)p.r(U)p.r(U)p.r(G)p.r(U)p.r(G)p.r(G)p.[hna](C)p.r(C)p.r(G)p.r(U)p.r(U)p.r(U)p.r(A)p.r(C)p.r(G)p.[hna](U)p.[hna](C)p.[hna](G)p.d(T)}$$$RNA1{StrandType:ss}|RNA2{StrandType:as}$	Satisfied
